Entry source: patent US20190367592A1

# target-under-test: T1, recombinant human Tau monomer, 2N4R isoform (amino acids 2-441) (human, UniProt P10636-8 2-441)
# T1 construct: range 2-441; N-terminal His-tag removed with TEV protease; also called monomeric Tau
# T1 sequence (P10636 other isoform, or with tags, fused parts or gaps limits assumed): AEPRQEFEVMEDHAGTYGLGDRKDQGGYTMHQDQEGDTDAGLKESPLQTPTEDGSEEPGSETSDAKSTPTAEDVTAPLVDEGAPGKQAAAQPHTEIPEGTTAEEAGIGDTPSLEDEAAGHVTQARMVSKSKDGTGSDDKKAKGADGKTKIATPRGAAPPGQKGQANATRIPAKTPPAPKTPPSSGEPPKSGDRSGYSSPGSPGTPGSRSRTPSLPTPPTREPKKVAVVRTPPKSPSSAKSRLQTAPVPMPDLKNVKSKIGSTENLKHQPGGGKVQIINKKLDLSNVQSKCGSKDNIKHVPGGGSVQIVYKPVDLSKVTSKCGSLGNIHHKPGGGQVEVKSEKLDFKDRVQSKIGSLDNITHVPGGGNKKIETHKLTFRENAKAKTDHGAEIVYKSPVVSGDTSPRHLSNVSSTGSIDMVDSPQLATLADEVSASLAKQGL
# test-details: SPR; Normalized Rmax post-stress (2 weeks 40 C) / pre-stress
# Protocol: Briefly, IgGs in 1 mL culuture were captured using tip columns that were custom packed with 20 μL MabSelect SuRe resin (Glygen Corp & GE Healthcare). […] The antibodies were assessed using a human antibody capture CM5 Series S chip generated using the GE Biacore human IgG capture kit and a Biacore T200 instrument. […] Binding to Tau monomer at 0 nM, 26.5 nM and 265 nM, at 25° C., using a flow rate of 40 μl/min, was monitored for a 180 second association phase followed by a 300 second dissociation phase. […]
Listed binders paired with reported Stability Index

>  <binder>
hu37D3-H9.v31.3 (antibody, V domains shown) VH: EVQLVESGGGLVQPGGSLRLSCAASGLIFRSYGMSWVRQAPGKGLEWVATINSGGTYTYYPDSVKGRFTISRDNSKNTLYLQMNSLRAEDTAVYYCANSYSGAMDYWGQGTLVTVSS VL: DDVLTQTPLSLPVTPGQPASISCRSSQSIVHSNAITYFEWYLQKPGQSPQLLIYKVSNRFSGVPDRFSGSGSGTDFTLKISRVEAEDVGVYYCFQGSLVPWTFGQGTKVEIK

>  <Stability Index (%)>
93

$$$$
>  <binder>
hu37D3.v28.A18 (antibody, V domains shown) VH: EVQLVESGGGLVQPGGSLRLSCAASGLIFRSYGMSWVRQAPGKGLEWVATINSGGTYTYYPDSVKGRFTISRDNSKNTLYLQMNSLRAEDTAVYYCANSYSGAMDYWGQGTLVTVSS VL: DVVLTQTPLSLPVTPGQPASISCRSSQSIVHSNGNTYFEWYLQKPGQSPQLLIYKVSNRFSGVPDRFSGSGSGTDFTLKISRVEAEDVGVYYCFQGSHVPWTFGQGTKVEIK

>  <Stability Index (%)>
83

$$$$
>  <binder>
hu37D3-H9.v5.10 (antibody, V domains shown) VH: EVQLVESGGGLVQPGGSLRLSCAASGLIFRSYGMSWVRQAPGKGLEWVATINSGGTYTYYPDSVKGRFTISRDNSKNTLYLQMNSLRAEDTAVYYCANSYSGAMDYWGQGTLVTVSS VL: EDVLTQTPLSLPVTPGQPASISCRSSQSIVHSNGATYFEWYLQKPGQSPQLLIYKVSNRFSGVPDRFSGSGSGTDFTLKISRVEAEDVGVYYCFQGSLVPWTFGQGTKVEIK

>  <Stability Index (%)>
78

$$$$
>  <binder>
hu37D3-H9.v30.2 (antibody, V domains shown) VH: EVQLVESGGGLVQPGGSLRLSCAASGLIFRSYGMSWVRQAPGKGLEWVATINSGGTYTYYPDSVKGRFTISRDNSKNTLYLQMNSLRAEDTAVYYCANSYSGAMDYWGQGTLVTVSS VL: DDVLTQTPLSLPVTPGQPASISCRSSQSIVHSTGNTYFEWYLQKPGQSPQLLIYKVSNRFSGVPDRFSGSGSGTDFTLKISRVEAEDVGVYYCFQGSLVPWTFGQGTKVEIK

>  <Stability Index (%)>
96

$$$$
>  <binder>
hu37D3.v28.54 (antibody, V domains shown) VH: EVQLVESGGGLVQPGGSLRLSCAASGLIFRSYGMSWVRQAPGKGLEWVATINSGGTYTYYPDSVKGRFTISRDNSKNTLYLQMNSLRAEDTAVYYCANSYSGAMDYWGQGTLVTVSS VL: EDVLTQTPLSLPVTPGQPASISCRSSQSIVHSLGNTYFEWYLQKPGQSPQLLIYKVSNRFSGVPDRFSGSGSGTDFTLKISRVEAEDVGVYYCFQGSLVPWTFGQGTKVEIK

>  <Stability Index (%)>
82

$$$$
